Tested on: E. fecalis
measurement-kind: MIC

{"molecule": "CCOC(=O)CCCCn1c(=O)cc(Nc2ccc(C)c(CC)c2)[nH]c1=O", "MIC": "5 µg/mL"}

Query MIC on E. fecalis for CCc1cc(Nc2cc(=O)n(CC(C)CO)c(=O)[nH]2)ccc1C (centres unmarked)
5 µg/mL

Query MIC on E. fecalis for CCc1cc(Nc2cc(=O)n(CCCCOC(=O)N3CCOCC3)c(=O)[nH]2)ccc1C
5 µg/mL

* * *

Assay: Pharmacokinetics in mice (plasma concentration by HPLC)
Type: in vivo
Settings: mouse, plasma, iv, 20 mg/kg, saline solution, ncm fit
From the text: Compound 59 was given to mice in simple saline solutions by various routes—subcutaneous (sc), intravenous (iv), and orally (po). High performance liquid chromatography (HPLC) on a reverse phase C 18 column was used to monitor the concentration of the compound in animal plasma, and the results were plotted as a function of time, as shown in FIG. 1. […]
measurement-kind: Tmax (h)
Expressed in h, but write only the number.

Field request: Tmax | item: CCc1cc(Nc2cc(=O)n(CCCCN3CCOCC3)c(=O)[nH]2)ccc1C.Cl
0

* * *

Assay: Pharmacokinetics in mice (plasma concentration by HPLC)
Format: in vivo
Settings: mouse, plasma, sc, 400 mg/kg, saline solution
measurement-kind: Cmax (ng/mL)
Expressed in ng/mL, but write only the number.

Field request: Cmax | item: CCc1cc(Nc2cc(=O)n(CCCCN3CCOCC3)c(=O)[nH]2)ccc1C.Cl [Compound 59]
24100

* * *

System: E. fecium
Entries whose MIC is below 10 mg/L take Fulfilled; entries at or above 10 mg/L take Not fulfilled.

Please determine if CCc1cc(Nc2cc(=O)n(CCCCN3CCN(c4nc(C)cc(C(=O)O)n4)CC3)c(=O)[nH]2)ccc1C is below 10 mg/L in terms of MIC.
Not fulfilled

Please determine if CCc1cc(Nc2cc(=O)n(CCCCCN3CCc4c([nH]c5ccc(OC)cc45)C3)c(=O)[nH]2)ccc1C is below 10 mg/L in terms of MIC.
Not fulfilled

Please determine if CCc1cc(Nc2cc(=O)n(CCCCCN3CC=C(c4ccc(F)cc4)CC3)c(=O)[nH]2)ccc1C is below 10 mg/L in terms of MIC.
Fulfilled

Please determine if CCc1cc(Nc2cc(=O)n(CCCCN3CC=C(c4ccc(F)c(C)c4)CC3)c(=O)[nH]2)ccc1C is below 10 mg/L in terms of MIC.
Not fulfilled

Please determine if CCc1cc(Nc2cc(=O)n(CCCC(O)CO)c(=O)[nH]2)ccc1C (stereo not shown) is below 10 mg/L in terms of MIC.
Not fulfilled

* * *

Assay: Pharmacokinetics in mice (plasma concentration by HPLC)
Format: in vivo
Settings: mouse, plasma, sc, 20 mg/kg, saline solution
measurement-kind: Tmax (min)
Expressed in min, but write only the number.

Field request: Tmax | item: CCc1cc(Nc2cc(=O)n(CCCCN3CCOCC3)c(=O)[nH]2)ccc1C.Cl
5

* * *

Experiment: Pharmacokinetics in mice (plasma concentration by HPLC)
Type: in vivo
Conditions: mouse, plasma, sc, 200 mg/kg, saline solution
measurement-kind: Cmax (ng/mL)
Expressed in ng/mL, but write only the number.

Field request: Cmax | item: CCc1cc(Nc2cc(=O)n(CCCCN3CCOCC3)c(=O)[nH]2)ccc1C.Cl [Compound 59]
15000

* * *

Target: B.subtilis pol IIIC (Bacillus subtilis, UniProt P13267)
Sequence (P13267 whole entry): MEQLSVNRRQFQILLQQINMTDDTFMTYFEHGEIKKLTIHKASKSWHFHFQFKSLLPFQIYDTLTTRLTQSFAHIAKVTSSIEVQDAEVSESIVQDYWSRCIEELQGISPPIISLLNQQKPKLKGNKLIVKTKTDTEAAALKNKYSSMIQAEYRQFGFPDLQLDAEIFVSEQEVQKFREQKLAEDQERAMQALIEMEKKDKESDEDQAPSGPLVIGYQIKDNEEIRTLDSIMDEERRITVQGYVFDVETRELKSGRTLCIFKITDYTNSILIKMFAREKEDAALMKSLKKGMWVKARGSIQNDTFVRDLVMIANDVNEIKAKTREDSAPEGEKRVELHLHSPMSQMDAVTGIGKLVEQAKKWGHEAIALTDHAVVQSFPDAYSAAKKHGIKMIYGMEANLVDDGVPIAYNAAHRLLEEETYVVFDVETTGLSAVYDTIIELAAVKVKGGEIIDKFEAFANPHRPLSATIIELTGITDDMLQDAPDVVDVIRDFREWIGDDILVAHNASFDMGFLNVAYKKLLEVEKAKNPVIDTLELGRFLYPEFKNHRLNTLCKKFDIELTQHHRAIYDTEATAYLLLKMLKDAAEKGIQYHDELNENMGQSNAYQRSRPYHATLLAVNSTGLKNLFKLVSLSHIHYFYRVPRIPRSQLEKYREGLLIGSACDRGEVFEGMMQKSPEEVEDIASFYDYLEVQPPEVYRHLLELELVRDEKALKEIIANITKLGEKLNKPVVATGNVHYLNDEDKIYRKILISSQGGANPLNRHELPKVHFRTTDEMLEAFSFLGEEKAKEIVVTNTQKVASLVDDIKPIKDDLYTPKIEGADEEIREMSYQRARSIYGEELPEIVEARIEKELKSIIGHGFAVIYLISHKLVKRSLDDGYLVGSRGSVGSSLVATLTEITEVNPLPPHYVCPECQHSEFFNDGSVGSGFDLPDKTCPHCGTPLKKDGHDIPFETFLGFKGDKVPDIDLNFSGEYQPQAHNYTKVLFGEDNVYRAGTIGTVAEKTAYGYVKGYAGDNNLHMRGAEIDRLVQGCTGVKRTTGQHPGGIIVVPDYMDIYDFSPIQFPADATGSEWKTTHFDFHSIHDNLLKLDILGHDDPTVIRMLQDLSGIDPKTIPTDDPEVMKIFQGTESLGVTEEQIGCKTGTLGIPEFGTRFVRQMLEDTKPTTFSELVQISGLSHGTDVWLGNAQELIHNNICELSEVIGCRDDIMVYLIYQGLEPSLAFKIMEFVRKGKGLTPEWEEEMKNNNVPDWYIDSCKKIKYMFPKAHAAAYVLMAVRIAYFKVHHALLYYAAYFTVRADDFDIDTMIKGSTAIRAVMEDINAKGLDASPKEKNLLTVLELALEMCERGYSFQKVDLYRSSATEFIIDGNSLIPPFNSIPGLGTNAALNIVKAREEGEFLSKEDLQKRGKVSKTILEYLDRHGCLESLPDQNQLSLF
Assay: biochemical
Entries whose Ki is below 100 nM take 1; entries at or above 100 nM take 0.

Illustrative cases are given below, each with its answer.
{"compound": "CCc1cc(Nc2cc(=O)n(CCCCNS(=O)(=O)c3cccs3)c(=O)[nH]2)ccc1C", "qualitative-label": 1}
{"compound": "CCc1cc(Nc2cc(=O)n(CC(C)CO)c(=O)[nH]2)ccc1C (centres unmarked)", "qualitative-label": 0}
{"compound": "CCc1cc(Nc2cc(=O)n(CCOCCOC)c(=O)[nH]2)ccc1C", "qualitative-label": 1}

Please determine if CCOC(=O)CCCCn1c(=O)cc(Nc2ccc(C)c(CC)c2)[nH]c1=O is below 100 nM in terms of Ki.
1

Please determine if CCc1cc(Nc2cc(=O)n(CCCCN3CC=C(c4ccc5c(c4)OCO5)CC3)c(=O)[nH]2)ccc1C is below 100 nM in terms of Ki.
1

Please determine if CCc1cc(Nc2cc(=O)n(CCCCN3CCN(c4ncc(C(=O)O)c(C(F)(F)F)n4)CC3)c(=O)[nH]2)ccc1C is below 100 nM in terms of Ki.
0

Please determine if CCc1cc(Nc2cc(=O)n(CCCCCNC[C@@H]3CCN(C(=O)OC(C)(C)C)C3)c(=O)[nH]2)ccc1C is below 100 nM in terms of Ki.
0

Please determine if CCc1cc(Nc2cc(=O)n(CCCCCNC(=O)c3cc4ccccc4s3)c(=O)[nH]2)ccc1C is below 100 nM in terms of Ki.
0

* * *

Assay: Pharmacokinetics in mice (plasma concentration by HPLC)
Type: in vivo
Conditions: mouse, plasma, iv, 20 mg/kg, saline solution
measurement-kind: half-life (min)
Expressed in min, but write only the number.

Field request: half-life | item: CCc1cc(Nc2cc(=O)n(CCCCN3CCOCC3)c(=O)[nH]2)ccc1C.Cl
39

* * *

We begin with a simple list: items and their reported log10 Ki.
Biological target: B.subtilis pol IIIC (Bacillus subtilis, UniProt P13267)
Assay: biochemical
For clarity, the numbers are log10 values of Ki expressed in nM.

// below: answered compounds
{"compound": "CCc1cc(Nc2cc(=O)n(CCCCN3CCN(c4nc(C)cc(C(=O)OC)n4)CC3)c(=O)[nH]2)ccc1C", "measurement-kind": "log10 Ki", "val": 1.82}
{"compound": "CCc1cc(Nc2cc(=O)n(CCCCN3CCN(c4nc(C)cc(C(=O)O)n4)CC3)c(=O)[nH]2)ccc1C", "measurement-kind": "log10 Ki", "val": 1.20}
{"compound": "CCc1cc(Nc2cc(=O)n(CCCCN3CCN(c4ncc(C(=O)OC)c(C(F)(F)F)n4)CC3)c(=O)[nH]2)ccc1C", "measurement-kind": "log10 Ki", "val": 2.74}
{"compound": "CCc1cc(Nc2cc(=O)n(CCCCCNC[C@H]3CCNC3)c(=O)[nH]2)ccc1C", "measurement-kind": "log10 Ki", "val": 2.05}

Query log10 Ki on B.subtilis pol IIIC (Bacillus subtilis, UniProt P13267) for CCc1cc(Nc2cc(=O)n(CCCCCN3CCc4c([nH]c5ccc(OC)cc45)C3)c(=O)[nH]2)ccc1C
2.04

Query log10 Ki on B.subtilis pol IIIC (Bacillus subtilis, UniProt P13267) for CCc1cc(Nc2cc(=O)n(CCCCCN3CC=C(c4cccs4)CC3)c(=O)[nH]2)ccc1C
1.89

Query log10 Ki on B.subtilis pol IIIC (Bacillus subtilis, UniProt P13267) for CCc1cc(Nc2cc(=O)n(CCCCCN3CC=C(c4cccc5ccsc45)CC3)c(=O)[nH]2)ccc1C
1.90

Query log10 Ki on B.subtilis pol IIIC (Bacillus subtilis, UniProt P13267) for CCOC(=O)CCCn1c(=O)cc(Nc2ccc(C)c(CC)c2)[nH]c1=O
2.00

Query log10 Ki on B.subtilis pol IIIC (Bacillus subtilis, UniProt P13267) for CCc1cc(Nc2cc(=O)n(CCCCCNc3ncc(C#N)c(N)n3)c(=O)[nH]2)ccc1C
4.60

Query log10 Ki on B.subtilis pol IIIC (Bacillus subtilis, UniProt P13267) for CCc1cc(Nc2cc(=O)n(CCN3CCOCC3)c(=O)[nH]2)ccc1C
1.95

Query log10 Ki on B.subtilis pol IIIC (Bacillus subtilis, UniProt P13267) for CCc1cc(Nc2cc(=O)n(CCCN3CCOCC3)c(=O)[nH]2)ccc1C
2.04

Query log10 Ki on B.subtilis pol IIIC (Bacillus subtilis, UniProt P13267) for CCc1cc(Nc2cc(=O)n(CCCCCN3CC=C(c4ccc(Cl)cc4)CC3)c(=O)[nH]2)ccc1C
1.94

Query log10 Ki on B.subtilis pol IIIC (Bacillus subtilis, UniProt P13267) for CCc1cc(Nc2cc(=O)n(CCCCO)c(=O)[nH]2)ccc1C [HB-EMAU, reference compound]
1.85

Query log10 Ki on B.subtilis pol IIIC (Bacillus subtilis, UniProt P13267) for CCc1cc(Nc2cc(=O)n(CCCCNCCCCn3cc(C(=O)O)c(=O)c4cc(F)c(Cl)cc43)c(=O)[nH]2)ccc1C
1.80

Query log10 Ki on B.subtilis pol IIIC (Bacillus subtilis, UniProt P13267) for CCc1cc(Nc2cc(=O)n(C/C=C/C(=O)OC)c(=O)[nH]2)ccc1C
2.51

Query log10 Ki on B.subtilis pol IIIC (Bacillus subtilis, UniProt P13267) for CCc1cc(Nc2cc(=O)n(CCCC(O)CO)c(=O)[nH]2)ccc1C (stereo not drawn)
1.98

Query log10 Ki on B.subtilis pol IIIC (Bacillus subtilis, UniProt P13267) for CCc1cc(Nc2cc(=O)n(CCCCN3CC=C(c4ccc(C)c(C)c4)CC3)c(=O)[nH]2)ccc1C
1.53
